Reported pEC50 values follow for various molecules
# Tested on: quiescent high density non senescent cells (HD NsC)
# Assay Protocol: Cell survival EC50 of MDM2 inhibitors, quiescent high density non senescent cells
# Condition: read-out: Cell survival data EC50 HD NsC
Hey, just a heads up that pEC50 is the negative log base 10 of the concentration in molar.

These solved cases illustrate the format of a correct answer.
QUERY: Quick check: pEC50 of O=C1c2c(c(-c3ccccc3)nn2Cc2ccc(F)cc2)C(c2ccc(Br)cc2)N1CCCn1ccnc1 (centres unmarked) ?
RESULT: 4.84

QUERY: Quick check: pEC50 of `CC(C)[C@@H](CS(=O)(=O)C(C)C)N1C(=O)[C@@](C)(CC(=O)O)C[C@H](c2cccc(Cl)c2)[C@H]1c1ccc(Cl)cc1` ?
RESULT: 5.39

QUERY: Quick check: pEC50 of O=C1c2c(c(-c3ccccc3)nn2Cc2ccccc2)C(c2ccc(Br)cc2)N1CCCn1ccnc1 (centres unmarked) ?
RESULT: 4.75

QUERY: Quick check: pEC50 of `c1ccc2c(CCNc3ccc(Nc4ccncc4)cc3)c[nH]c2c1` ?
RESULT: 5.18

Next:
QUERY: Quick check: pEC50 of CCCCn1c(=O)[nH]c(O)c(C2NCCc3c2[nH]c2ccccc32)c1=O (centres unmarked) ?
RESULT: 4.68

QUERY: Quick check: pEC50 of `OCc1ccc(-c2ccc(-c3ccc(CO)s3)o2)s1` ?
RESULT: 3.65

QUERY: Quick check: pEC50 of O=C(/C=C/c1ccc(I)cc1)c1ccc(B(O)O)cc1 [Boronate, trans-4-Iodo, 4′-boranyl-chalcone] ?
RESULT: 3.81

QUERY: Quick check: pEC50 of `COc1cc(C(=O)O)ccc1NC(=O)[C@@H]1N[C@@H](CC(C)(C)C)[C@](C#N)(c2ccc(Cl)cc2F)[C@H]1c1cccc(Cl)c1F` ?
RESULT: 4.50

* * *

# System: non-senescent IMR90 cells
# Assay Protocol: CellTiter-Glo cell viability assay, non-senescent IMR90
# Type: cell-based
# Condition: Homo sapiens, IMR-90, 72 h; IMR90, 3 days; read-out: IC50 in non-senescent cells
Measure: IC50 (nM)
// return numeric value only (unit: nM, not printed)

QUERY: Quick check: IC50 of COC1=CC(c2cc3ccccc3[nH]2)=N/C1=C\c1[nH]c(C)cc1C [Obatoclax] ?
RESULT: 75

* * *

# Test system: senescent (irradiated) IMR90 cells
# Assay Protocol: CellTiter-Glo cell viability assay, senescent IMR90
# Assay type: cell-based, human
# Condition: Homo sapiens, IMR-90, 72 h; IMR90, 3 days, CellTiter-Glo; read-out: IC50 on senescent cells
Measure: pIC50
Hey, just a heads up that pIC50 is the negative log base 10 of the concentration in molar.

QUERY: Quick check: pIC50 of `CC1(C)CCC(c2ccc(Cl)cc2)=C(CN2CCN(c3ccc(C(=O)NS(=O)(=O)c4ccc(N[C@H](CCN5CCOCC5)CSc5ccccc5)c(S(=O)(=O)C(F)(F)F)c4)cc3)CC2)C1` ?
RESULT: 6.85

* * *

# Test system: Senescent cells (SnC)
# Assay Protocol: Cell survival EC50 of MDM2 inhibitors, senescent cells
# Condition: read-out: Cell survival data EC50 SnC
Measure: EC50 (µM)
// return numeric value only (unit: µM, not printed)

QUERY: Find the measured EC50: item `c1ccc2c(CCNc3ccc(Nc4ccncc4)cc3)c[nH]c2c1` , target or system Senescent cells (SnC).
RESULT: 1

QUERY: Find the measured EC50: item O=C1c2c(c(-c3ccccc3)nn2Cc2ccccc2)C(c2ccc(Br)cc2)N1CCCn1ccnc1 (centres unmarked) , target or system Senescent cells (SnC).
RESULT: 11

QUERY: Find the measured EC50: item CCCCn1c(=O)[nH]c(O)c(C2NCCc3c2[nH]c2ccccc32)c1=O (centres unmarked) , target or system Senescent cells (SnC).
RESULT: 4

QUERY: Find the measured EC50: item `OCc1ccc(-c2ccc(-c3ccc(CO)s3)o2)s1` , target or system Senescent cells (SnC).
RESULT: 254
